tested on: E. coli TESEC Mtb Alr; experiment: growth (OD600 after 10 h); higher = more growth (less inhibition); conditions: arabinose 10000000 nM; compound 0.1 mM; raw OD600 reference: median of DMSO wells […], cell-free background 0.052
Where a name gives a salt, the structure may show the parent alone.
Decide by growth: equal to or exceeding 0.2 means Yes, less means No.

Solved entries:
compound	answer label
CC(C)(C)NC(=O)[C@H]1CC[C@H]2[C@@H]3CC[C@H]4NC(=O)C=C[C@]4(C)[C@H]3CC[C@]12C [Finasteride]	No
COc1cc(Cc2cnc(N)nc2N)cc(OC)c1OC [Trimethoprim]	No
O=C(O)c1ccccc1OP(=O)(O)O [Fosfosal]	Yes
CC(=O)[C@H]1CC[C@H]2[C@@H]3C=CC4=CC(=O)CC[C@@]4(C)[C@@H]3CC[C@]12C [Dydrogesterone]	No
NNCCc1ccccc1 [Phenelzine sulfate]	No

Turning now to a further compound:
Query: Given the entry COc1ccc(CN2CCN(C(c3ccc(F)cc3)c3ccc(F)cc3)CC2)c(OC)c1OC [Lomerizine hydrochloride] , answer whether its growth meets or surpasses 0.2.
Result: No

* * *

test system: E. coli TESEC Mtb Asd; assay: growth (OD600 after 10 h); higher = more growth (less inhibition); conditions: arabinose induction (level): High; compound 0.1 mM; raw OD600 reference: median of DMSO wells 0.331, cell-free background 0.041
Where a name gives a salt, the structure may show the parent alone.
# label = met if growth >= 0.3 else not met

Here are 6 compounds together with their reported answers.
compound	answer label
CC(=O)N(CC(O)CN(C(C)=O)c1c(I)c(C(=O)NCC(O)CO)c(I)c(C(=O)NCC(O)CO)c1I)c1c(I)c(C(=O)NCC(O)CO)c(I)c(C(=O)NCC(O)CO)c1I (configuration not stated)	met
CCN(CC)CCNc1ccc(CO)c2sc3ccccc3c(=O)c12	not met
CCN1CCCC1CNC(=O)c1cc(S(=O)(=O)CC)c(N)cc1OC (configuration not stated) [Amisulpride]	met
CC(=O)c1ccc(S(=O)(=O)NC(=O)NC2CCCCC2)cc1 [Acetohexamide]	not met
COCCOC(=O)C1=C(C)NC(C)=C(C(=O)OC/C=C/c2ccccc2)C1c1cccc([N+](=O)[O-])c1 (configuration not stated)	not met
CC(N)CCCC(C)(C)O (configuration not stated) [Heptaminol hydrochloride]	met

We next turn to a different compound, shown below.
Query: Identify whether the reported growth of the following compound is 0.3 or greater: C[C@]12CC[C@@H]3c4ccc(O)cc4C[C@@H](CCCCCCCCC[S+]([O-])CCCC(F)(F)C(F)(F)F)[C@H]3[C@@H]1CC[C@@H]2O (some centres not stated)
Result: met

* * *

system: E. coli TESEC Mtb DapB; assay: growth (OD600 after 10 h); higher = more growth (less inhibition); details: arabinose induction (level): Low; compound 0.1 mM; raw OD600 reference: median of DMSO wells 0.227, cell-free background 0.041
Counter-ions that a name gives are not always drawn.
growth by entry:

Below, each entry is followed by its recorded growth result.
compound	growth
O=C1CC2(CCCC2)CC(=O)N1CCCCN1CCN(c2ncccn2)CC1 [Buspirone hydrochloride]	0.226
C#C[C@]1(O)CC[C@H]2[C@@H]3CCC4=CC(=O)CC[C@@H]4[C@H]3CC[C@@]21C	0.21
CCCCC(=O)O[C@H]1CC[C@H]2[C@@H]3CCc4cc(O)ccc4[C@H]3CC[C@]12C [Estradiol Valerate]	0.207
OCc1cc(C(O)CNCCCCCCOCCCCc2ccccc2)ccc1O (centres undefined)	0.214

Query: # growth lookup, item O=C(NCC1CCCCN1)c1cc(OCC(F)(F)F)ccc1OCC(F)(F)F (centres undefined) [Flecainide acetate]
Result: 0.213

Query: Quick one: CCOC(=O)c1ccc(OC(=O)CCCCCNC(=N)N)cc1 [Gabexate mesilate]
Result: 0.16

Query: Likewise for NS(=O)(=O)c1cc2c(cc1Cl)NC(C(Cl)Cl)NS2(=O)=O (centres undefined) [Trichlormethiazide] ?
Result: 0.246

Query: Proceed to "CCn1nc(C(=O)O)c(=O)c2cc3c(cc21)OCO3"
Result: 0.212

Query: Same thing, different compound: "Nc1nc(Cl)nc2c1ncn2[C@H]1C[C@H](O)[C@@H](CO)O1"
Result: 0.209

* * *

tested on: E. coli TESEC Mtb Alr; test: growth (OD600 after 10 h); higher = more growth (less inhibition); conditions: arabinose 1000000 nM; compound 0.1 mM; raw OD600 reference: median of DMSO wells 0.193, cell-free background 0.041
# growth values compiled below
Number, no unit, nothing else.

Below: 3 compounds and their reported growth.
compound	measured target	test result
CC(=O)NS(=O)(=O)c1ccc(N)cc1 [Sulfacetamide sodic hydrate]	E. coli TESEC Mtb Alr	0.187
Nc1nc(=S)c2ncn([C@@H]3O[C@H](CO)[C@@H](O)[C@H]3O)c2[nH]1	E. coli TESEC Mtb Alr	0.0474
O=C1NCCN1CCN1CCC(c2cn(-c3ccc(F)cc3)c3ccc(Cl)cc23)CC1	E. coli TESEC Mtb Alr	0.04

Kindly review the next compound as well.
Query: # query: growth of entry Cc1cnc(C(=O)NCCc2ccc(S(=O)(=O)NC(=O)NC3CCCCC3)cc2)cn1 [Glipizide]
Result: 0.183

* * *

tested on: E. coli TESEC Mtb Asd; experiment: growth (OD600 after 10 h); higher = more growth (less inhibition); conditions: arabinose induction (level): High; compound 0.1 mM; raw OD600 reference: median of DMSO wells 0.331, cell-free background 0.041
Structures can show the parent of a compound that is named as a salt.
Reported growth by item:
Respond with the number and no other words.

Guide cases for growth, answers given:
compound	measured target	growth
CNCCC(Oc1ccccc1OC)c1ccccc1 (configuration not stated) [Nisoxetine hydrochloride]	E. coli TESEC Mtb Asd	0.247
COc1nc(C)nc(Cl)c1NC1=NCCN1 [Moxonidine]	E. coli TESEC Mtb Asd	0.248
CC1=C(/C=C/C(C)=C/C=C/C(C)=C\C(=O)O)C(C)(C)CCC1 [Isotretinoin]	E. coli TESEC Mtb Asd	0.328
NS(=O)(=O)c1cc(C(=O)O)c(NCc2ccco2)cc1Cl [Furosemide]	E. coli TESEC Mtb Asd	0.353
O=C1CCC(N2C(=O)c3ccccc3C2=O)C(=O)N1 (configuration not stated) [Thalidomide]	E. coli TESEC Mtb Asd	0.392
CN1[C@@H]2CC[C@H]1C[C@@H](OC(=O)c1c[nH]c3ccccc13)C2 [Tropisetron HCl]	E. coli TESEC Mtb Asd	0.305
CCN(CCO)CCCC(C)Nc1ccnc2cc(Cl)ccc12 (configuration not stated) [Hydroxychloroquine sulfate]	E. coli TESEC Mtb Asd	0.265
C[C@@H]1CCC[C@H](C)N1NC(=O)c1ccc(Cl)c(S(N)(=O)=O)c1 [Clopamide]	E. coli TESEC Mtb Asd	0.283
O=C(NCCN1CCOCC1)c1ccc(Cl)cc1 [Moclobemide]	E. coli TESEC Mtb Asd	0.323
NC(CO)C(=O)NNCc1ccc(O)c(O)c1O (configuration not stated) [Benserazide hydrochloride]	E. coli TESEC Mtb Asd	0.186

Query: Checklist item: growth tested on E. coli TESEC Mtb Asd, entry Cn1cnc([N+](=O)[O-])c1Sc1ncnc2[nH]cnc12 [Azathioprine] , value?
Result: 0.347

Query: Further, for CC(C)NCC(O)c1cc(O)cc(O)c1 (configuration not stated) [Metaproterenol sulfate, orciprenaline sulfate] ?
Result: 0.283

Query: // repeat for CC(=O)OC(C)C[N+](C)(C)C (configuration not stated) [Methacholine chloride] and report
Result: 0.361

Query: // query: Cc1cccc(CN2CCN(C(c3ccccc3)c3ccc(Cl)cc3)CC2)c1 (configuration not stated) [Meclozine dihydrochloride]
Result: 0.207

Query: Another compound to look at: CCCc1nc(C)c2c(=O)nc(-c3cc(S(=O)(=O)N4CCN(CC)CC4)ccc3OCC)[nH]n12 [Vardenafil]
Result: 0.189

Query: Cool, now O=C(O)c1cc(=O)c2c(OCC(O)COc3cccc4oc(C(=O)O)cc(=O)c34)cccc2o1 [Cromolyn disodium salt]
Result: 0.389

Query: Please do the same for COc1cc([C@@H]2c3cc4c(cc3[C@@H](O[C@@H]3O[C@@H]5CO[C@@H](C)O[C@H]5[C@H](O)[C@H]3O)[C@H]3COC(=O)[C@H]23)OCO4)cc(OC)c1O [Etoposide] as well.
Result: 0.112

* * *

system: E. coli TESEC Mtb Alr; assay: growth (OD600 after 10 h); higher = more growth (less inhibition); details: arabinose 100 nM; compound 0.1 mM; raw OD600 reference: median of DMSO wells 0.413, cell-free background 0.052
Where a name gives a salt, the structure may show the parent alone.
Documented growth across a set of compounds
Form field (numeric): enter value without unit.

Here's what some known entries look like.
compound	measured target	growth
COc1ccc2cc([C@@H](C)C(=O)O)ccc2c1 [(R) -Naproxen sodium salt]	E. coli TESEC Mtb Alr	0.408
COc1cc2nc(N3CCN(C(=O)C4COc5ccccc5O4)CC3)nc(N)c2cc1OC (centres undefined) [Doxazosin mesylate]	E. coli TESEC Mtb Alr	0.277

Query: // lookup growth for CCc1cc(Cl)c(OC)c(C(=O)NC[C@@H]2CCCN2CC)c1O [S(-)Eticlopride hydrochloride]
Result: 0.399

Query: How about this compound: CC1=C(CC(=O)O)c2cc(F)ccc2/C1=C\c1ccc([S+](C)[O-])cc1 (centres undefined) [Sulindac]
Result: 0.364

Query: Next compound up: CN(C)CCCOc1nn(Cc2ccccc2)c2ccccc12 [Benzydamine hydrochloride]
Result: 0.404

Query: Can you handle CC(=O)CCCCn1c(=O)c2c(ncn2C)n(C)c1=O [Pentoxifylline] next?
Result: 0.431

The measurements presented in this section are drawn from the supplement of paper PMC9262897.
